Assay: Hemolytic activity in sheep erythrocyte assessed as hemolysis incubated for 1 hr by absorbance based analysis
Assay type: toxicity, cell-based, Ovis aries
Conditions: sheep erythrocytes
Below, each entry is listed with its recorded HC50 at 1 h.

// solved cases for HC50 at 1 h follow
compoundsmiles=CCN(CC)C(=O)C[N+](C)(C)CCCCCOc1ccc2ccc(=O)oc2c1CC=C(C)C.[Br-] parameter="HC50 at 1 h" recordedresult="> 1280 µg/mL"
compoundsmiles=CCNC(=O)C[N+](C)(C)CCCOc1ccc2ccc(=O)oc2c1CC=C(C)C.[Br-] parameter="HC50 at 1 h" recordedresult="> 640 µg/mL"
compoundsmiles=CC(C)=CCc1c(OCCCCC[N+](C)(C)CC(=O)N(CC(C)C)CC(C)C)ccc2ccc(=O)oc12.[Br-] parameter="HC50 at 1 h" recordedresult="960 µg/mL"
compoundsmiles=COc1ccc2ccc(=O)oc2c1CC=C(C)C parameter="HC50 at 1 h" recordedresult="> 80 µg/mL"
compoundsmiles=CCN(CC)C(=O)C[N+](C)(C)CCCCOc1ccc2ccc(=O)oc2c1CC=C(C)C.[Br-] parameter="HC50 at 1 h" recordedresult="1220 µg/mL"
compoundsmiles=CCCN(CCC)C(=O)C[N+](C)(C)CCCCOc1ccc2ccc(=O)oc2c1CC=C(C)C.[Br-] parameter="HC50 at 1 h" recordedresult="> 1280 µg/mL"

// query Please report the recorded HC50 at 1 h for "CCCCCNC(=O)C[N+](C)(C)CCCCOc1ccc2ccc(=O)oc2c1CC=C(C)C.[Br-]" .
// result > 1280 µg/mL

// query Need HC50 at 1 h, item "CCN(CC)C(=O)C[N+](C)(C)CCCOc1ccc2ccc(=O)oc2c1CC=C(C)C.[Br-]"
// result > 1280 µg/mL

// query # input compound: "CCCCCCNC(=O)C[N+](C)(C)CCCOc1ccc2ccc(=O)oc2c1CC=C(C)C.[Br-]" ; wanted: its HC50 at 1 h
// result > 1280 µg/mL

// query # query: HC50 at 1 h of entry "CCCNC(=O)C[N+](C)(C)CCCCCOc1ccc2ccc(=O)oc2c1CC=C(C)C.[Br-]"
// result 1140 µg/mL

// query Fill in the blank: the reported HC50 at 1 h of "CCCCN(CCCC)C(=O)C[N+](C)(C)CCCCOc1ccc2ccc(=O)oc2c1CC=C(C)C.[Br-]" is ____.
// result > 1280 µg/mL

// query Look up HC50 at 1 h for this compound: "CCCCNC(=O)C[N+](C)(C)CCCCCOc1ccc2ccc(=O)oc2c1CC=C(C)C.[Br-]"
// result 798 µg/mL

// query For the compound shown here, "CCCNC(=O)C[N+](C)(C)CCCOc1ccc2ccc(=O)oc2c1CC=C(C)C.[Br-]" , give the reported HC50 at 1 h.
// result > 1280 µg/mL

* * *

Assay: Selectivity index, ratio of HC50 for hemolytic activity in sheep erythrocyte assessed as hemolysis to MIC for antibacterial activity against Staphylococcus aureus ATCC 29213
Assay type: toxicity
Conditions: sheep erythrocytes, read-out: Selectivity Index
parameter: selectivity ratio

compoundsmiles=CCCCN(CCCC)C(=O)C[N+](C)(C)CCCCCOc1ccc2ccc(=O)oc2c1CC=C(C)C.[Br-] parameter="selectivity ratio" recordedresult=989

// query What selectivity ratio value was documented for this molecule, "CCCCCCNC(=O)C[N+](C)(C)CCCOc1ccc2ccc(=O)oc2c1CC=C(C)C.[Br-]" ?
// result > 320

// query Bench note: what selectivity ratio did "CCCN(CCC)C(=O)C[N+](C)(C)CCCOc1ccc2ccc(=O)oc2c1CC=C(C)C.[Br-]" show?
// result > 40

// query I have this molecule here, "CCN(CC)C(=O)C[N+](C)(C)CCCCCOc1ccc2ccc(=O)oc2c1CC=C(C)C.[Br-]" , and I need its recorded selectivity ratio.
// result 40

// query Entry "CCCCCCNC(=O)C[N+](C)(C)CCCCOc1ccc2ccc(=O)oc2c1CC=C(C)C.[Br-]" : reported selectivity ratio = ?
// result > 320

// query Entry "CC(C)=CCc1c(OCCCCC[N+](C)(C)CC(=O)N(C(C)C)C(C)C)ccc2ccc(=O)oc12.[Br-]" has what selectivity ratio?
// result 184

// query Need selectivity ratio of "CCNC(=O)C[N+](C)(C)CCCOc1ccc2ccc(=O)oc2c1CC=C(C)C.[Br-]" , thanks.
// result > 5

// query selectivity ratio lookup needed for "CCNC(=O)C[N+](C)(C)CCCCOc1ccc2ccc(=O)oc2c1CC=C(C)C.[Br-]" , thanks.
// result > 10

// query Dear colleague, I am looking for the recorded selectivity ratio of the following molecule: "CCCN(CCC)C(=O)C[N+](C)(C)CCCCCOc1ccc2ccc(=O)oc2c1CC=C(C)C.[Br-]"
// result 97.4

// query Item "CCCCCNC(=O)C[N+](C)(C)CCCCCOc1ccc2ccc(=O)oc2c1CC=C(C)C.[Br-]" has what recorded selectivity ratio?
// result > 320

// query # input molecule: "CCCCN(CCCC)C(=O)C[N+](C)(C)CCCCOc1ccc2ccc(=O)oc2c1CC=C(C)C.[Br-]" ; wanted: its selectivity ratio
// result > 640

* * *

Test system: Staphylococcus aureus
Assay: Antibacterial activity against methicillin-resistant Staphylococcus aureus clinical isolate 13 measured after 18 hrs by CLSI based broth microdilution method
Format: functional
Could you mark each record 1 if its MIC falls strictly under 8 µg/mL, and -1 if it equals or exceeds it?

Answered examples (4):
compoundsmiles=CCNC(=O)C[N+](C)(C)CCCCCOc1ccc2ccc(=O)oc2c1CC=C(C)C.[Br-] subjectoftest="Staphylococcus aureus" classname=-1
compoundsmiles=CCN(CC)C(=O)C[N+](C)(C)CCCCOc1ccc2ccc(=O)oc2c1CC=C(C)C.[Br-] subjectoftest="Staphylococcus aureus" classname=-1
compoundsmiles=COc1ccc2ccc(=O)oc2c1CC=C(C)C subjectoftest="Staphylococcus aureus" classname=-1
compoundsmiles=CC(C)=CCc1c(OCCC[N+](C)(C)CC(=O)N(CC(C)C)CC(C)C)ccc2ccc(=O)oc12.[Br-] subjectoftest="Staphylococcus aureus" classname=1

// query For "CCCCN(CCCC)C(=O)C[N+](C)(C)CCCCOc1ccc2ccc(=O)oc2c1CC=C(C)C.[Br-]" , is the recorded MIC below the cut-off of 8 µg/mL?
// result 1

// query Decide: MIC of "CCCCCCNC(=O)C[N+](C)(C)CCCCCOc1ccc2ccc(=O)oc2c1CC=C(C)C.[Br-]" strictly below 8 µg/mL?
// result 1

// query Please indicate whether the reported MIC of "CCCCNC(=O)C[N+](C)(C)CCCCOc1ccc2ccc(=O)oc2c1CC=C(C)C.[Br-]" is strictly below 8 µg/mL.
// result -1

// query Problem: For the compound "CCCNC(=O)C[N+](C)(C)CCCCCOc1ccc2ccc(=O)oc2c1CC=C(C)C.[Br-]" , is MIC under 8 µg/mL?
// result -1

// query Input "CCCN(CCC)C(=O)C[N+](C)(C)CCCCOc1ccc2ccc(=O)oc2c1CC=C(C)C.[Br-]" ; condition: MIC strictly below 8 µg/mL. Does it hold?
// result -1

* * *

Assay: Selectivity index, ratio of HC50 for hemolytic activity in sheep erythrocyte assessed as hemolysis to MIC for antibacterial activity against Staphylococcus aureus ATCC 29213
Assay type: toxicity
Conditions: sheep erythrocytes, read-out: Selectivity Index
Recorded selectivity ratio, one value per entry.

Before answering, review these 2 worked examples.
compoundsmiles=CC(C)=CCc1c(OCCC[N+](C)(C)CC(=O)N(C(C)C)C(C)C)ccc2ccc(=O)oc12.[Br-] parameter="selectivity ratio" recordedresult="> 40"
compoundsmiles=CCCCCNC(=O)C[N+](C)(C)CCCOc1ccc2ccc(=O)oc2c1CC=C(C)C.[Br-] parameter="selectivity ratio" recordedresult=75.3

// query Name the recorded selectivity ratio for "CCCN(CCC)C(=O)C[N+](C)(C)CCCCOc1ccc2ccc(=O)oc2c1CC=C(C)C.[Br-]" .
// result > 80

// query I would be grateful if you could share the reported selectivity ratio for "CCCCNC(=O)C[N+](C)(C)CCCOc1ccc2ccc(=O)oc2c1CC=C(C)C.[Br-]" .
// result > 40

// query So what's the measured selectivity ratio for this one? "CCCNC(=O)C[N+](C)(C)CCCCOc1ccc2ccc(=O)oc2c1CC=C(C)C.[Br-]"
// result > 20

// query Recorded selectivity ratio of "CCCCNC(=O)C[N+](C)(C)CCCCCOc1ccc2ccc(=O)oc2c1CC=C(C)C.[Br-]" , please.
// result 99.8

// query Which selectivity ratio reading was recorded for the compound "CCCCNC(=O)C[N+](C)(C)CCCCOc1ccc2ccc(=O)oc2c1CC=C(C)C.[Br-]" ?
// result > 40

// query Can you share its selectivity ratio? I mean this compound: "CCN(CC)C(=O)C[N+](C)(C)CCCOc1ccc2ccc(=O)oc2c1CC=C(C)C.[Br-]"
// result > 10

// query For the compound shown here, "CC(C)=CCc1c(OCCCC[N+](C)(C)CC(=O)N(C(C)C)C(C)C)ccc2ccc(=O)oc12.[Br-]" , give the reported selectivity ratio.
// result 79.2
